We begin with a simple list: items and their reported koff.
Target: T1, human C1s (human, UniProt P09871 16-688)
T1 construct: also called hC1s; serum-derived human C1s (CompTech)
T1 sequence: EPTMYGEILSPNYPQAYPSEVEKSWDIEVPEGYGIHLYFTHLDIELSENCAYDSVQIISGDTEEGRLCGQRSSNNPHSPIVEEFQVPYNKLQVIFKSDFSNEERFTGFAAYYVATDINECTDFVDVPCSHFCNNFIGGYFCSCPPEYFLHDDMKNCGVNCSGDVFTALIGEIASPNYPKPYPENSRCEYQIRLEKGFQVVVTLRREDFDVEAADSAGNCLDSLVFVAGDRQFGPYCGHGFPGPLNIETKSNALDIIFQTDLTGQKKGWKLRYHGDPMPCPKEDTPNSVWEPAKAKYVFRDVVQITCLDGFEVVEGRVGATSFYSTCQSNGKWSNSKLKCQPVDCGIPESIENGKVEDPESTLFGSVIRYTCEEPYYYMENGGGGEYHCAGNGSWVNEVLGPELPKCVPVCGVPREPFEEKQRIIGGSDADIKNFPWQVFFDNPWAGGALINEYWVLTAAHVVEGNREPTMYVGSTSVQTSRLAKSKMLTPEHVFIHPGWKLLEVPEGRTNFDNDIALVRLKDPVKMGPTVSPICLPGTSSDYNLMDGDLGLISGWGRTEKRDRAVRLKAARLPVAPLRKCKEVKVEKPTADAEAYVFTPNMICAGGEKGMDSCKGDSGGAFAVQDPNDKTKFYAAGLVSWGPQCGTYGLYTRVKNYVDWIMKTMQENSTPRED
Assay: SPR, Ab captured; pH 7.4, 1.2 mM Ca
All answers are understood in s⁻¹, so give the number only.

The binder identified as C1_IPN92H0279-SG4GK/IPN93L0091-SK1 (antibody, human IgG4 S228P, kappa, name in Kabat numbering, V domains shown, also called IPN92H0279/IPN93L0091) VH: EVMLVESGGGLVKPGGSLRLSCAASGFTFSNYAMSWVRQAPGKGLEWVATISSGGSHTYELDSVKERFTISRDNSKDTLYLQMNSLRAEDTALYYCARLFTKHAMDYWGQGTLVTVSS VL: QIVLTQSPATLSLSPGERATLSCTASSSVSSSRLHWYQQKPGKAPKLWIYSTSNLASGVPSRFSGSGSGTDYTLTISSLQPEDFATYYCHQYYRLHPITFGQGTKLEIKR registered its koff at 0.000897

binder C1_IPN92H0160-SG4GK/IPN93L0024-SK1 (antibody, human IgG4 S228P, kappa, name in Kabat numbering, V domains shown, also called IPN92H0160/IPN93L0024) VH: EVMLVESGGGLVKPGGSLRLSCAASGFTFSNYAMSWVRQAPGKGLEWVATISSGGSHTYELDSVKGRFTISRDNSKDTLYLQMNSLRAEDTALYYCARLFTGHAMDYWGQGTLVTVSS VL: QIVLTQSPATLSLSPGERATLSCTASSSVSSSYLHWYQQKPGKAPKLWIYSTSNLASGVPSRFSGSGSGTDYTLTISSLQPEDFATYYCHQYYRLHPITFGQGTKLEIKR , koff observed: 0.000558

C1_IPN92H0091-SG4GK/IPN93L0024-SK1 (antibody, human IgG4 S228P, kappa, name in Kabat numbering, V domains shown, also called IPN92H0091/IPN93L0024) VH: EVMLVESGGGLVKPGGSLRLSCAASGFTFSNYAKSWVRQAPGKGLEWVATISSGGSHTYYLDSVKGRFTISRDNSKDTLYLQMNSLRAEDTALYYCARLFTGHAMDYWGQGTLVTVSS VL: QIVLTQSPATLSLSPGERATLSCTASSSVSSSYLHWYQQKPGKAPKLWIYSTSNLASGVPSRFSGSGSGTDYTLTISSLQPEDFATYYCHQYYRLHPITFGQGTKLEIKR yielded koff of 0.000746

Given item C1_IPN92H0166-SG4GK/IPN93L0024-SK1 (antibody, human IgG4 S228P, kappa, name in Kabat numbering, V domains shown, also called IPN92H0166/IPN93L0024) VH: EVMLVESGGGLVKPGGSLRLSCAASGFTFSNYAMSWVRQAPGKGLEWVATISSGGSHTYYEDSVKGRFTISRDNSKDTLYLQMNSLRAEDTALYYCARLFTGHAMDYWGQGTLVTVSS VL: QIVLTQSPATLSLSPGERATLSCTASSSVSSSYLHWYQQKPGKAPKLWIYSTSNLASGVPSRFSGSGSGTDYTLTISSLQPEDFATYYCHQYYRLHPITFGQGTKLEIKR , the value recorded as its koff is 0.000518

Per the records, this binder ( C1_IPN92H0193-SG4GK/IPN93L0024-SK1 (antibody, human IgG4 S228P, kappa, name in Kabat numbering, V domains shown, also called IPN92H0193/IPN93L0024) VH: EVMLVESGGGLVKPGGSLRLSCAASGFTFSNYAMSWVRQAPGKGLEWVATISSGGSHTYYLDSVKDRFTISRDNSKDTLYLQMNSLRAEDTALYYCARLFTGHAMDYWGQGTLVTVSS VL: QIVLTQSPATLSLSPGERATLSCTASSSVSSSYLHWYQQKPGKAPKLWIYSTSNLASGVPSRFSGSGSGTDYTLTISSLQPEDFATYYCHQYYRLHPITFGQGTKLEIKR ) has koff equal to 0.000474

For reference, reported koff for C1_IPN92H0165-SG4GK/IPN93L0024-SK1 (antibody, human IgG4 S228P, kappa, name in Kabat numbering, V domains shown, also called IPN92H0165/IPN93L0024) VH: EVMLVESGGGLVKPGGSLRLSCAASGFTFSNYAMSWVRQAPGKGLEWVATISSGGSHTYYDDSVKGRFTISRDNSKDTLYLQMNSLRAEDTALYYCARLFTGHAMDYWGQGTLVTVSS VL: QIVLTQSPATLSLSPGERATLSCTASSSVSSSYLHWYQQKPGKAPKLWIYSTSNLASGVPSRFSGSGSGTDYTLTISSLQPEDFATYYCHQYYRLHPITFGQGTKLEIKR stands at 0.000512

What the record says about C1_IPN92H0033-SG4GK/IPN93L0072-SK1 (antibody, human IgG4 S228P, kappa, name in Kabat numbering, V domains shown, also called IPN92H0033/IPN93L0072) VH: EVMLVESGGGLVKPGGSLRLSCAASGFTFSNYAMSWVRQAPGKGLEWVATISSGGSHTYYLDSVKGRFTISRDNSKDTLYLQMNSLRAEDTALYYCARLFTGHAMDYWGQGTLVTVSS VL: QIVLTQSPATLSLSPGERATLSCTASSSVKSSYLHWYQQKPGKAPKLWIYSTSNLASGVPSRFSGSGSGTDYTLTISSLQPEDFATYYCHQYYRLHPITFGQGTKLEIKR : koff is 0.000567

The recorded koff for C1_IPN92H0281-SG4GK/IPN93L0091-SK1 (antibody, human IgG4 S228P, kappa, name in Kabat numbering, V domains shown, also called IPN92H0281/IPN93L0091) VH: EVMLVESGGGLVKPGGSLRLSCAASGFTFSNYAMSWVRQAPGKGLEWVATISSGGSKTYELDSVDERFTISRDNSKDTLYLQMNSLRAEDTALYYCARLFTKHAMDYWGQGTLVTVSS VL: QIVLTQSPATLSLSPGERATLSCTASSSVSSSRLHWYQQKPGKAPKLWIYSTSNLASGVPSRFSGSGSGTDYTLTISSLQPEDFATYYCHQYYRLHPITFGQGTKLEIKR is 0.00216

// C1_IPN92H0232-SG4GK/IPN93L0024-SK1 (antibody, human IgG4 S228P, kappa, name in Kabat numbering, V domains shown, also called IPN92H0232/IPN93L0024) VH: EVMLVESGGGLVKPGGSLRLSCAASGFTFSNYAMSWVRQAPGKGLEWVATISSGGSHTYYLDSVKGRFTISRDNSKDTLYLQMNSLRAEDTALYYCARLFTRHAMDYWGQGTLVTVSS VL: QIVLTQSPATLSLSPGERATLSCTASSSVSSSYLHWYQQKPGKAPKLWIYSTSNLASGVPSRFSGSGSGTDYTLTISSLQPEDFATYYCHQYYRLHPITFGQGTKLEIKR : koff value = 0.000609

Lookup result for C1_IPN92H0144-SG4GK/IPN93L0024-SK1 (antibody, human IgG4 S228P, kappa, name in Kabat numbering, V domains shown, also called IPN92H0144/IPN93L0024) VH: EVMLVESGGGLVKPGGSLRLSCAASGFTFSNYAMSWVRQAPGKGLEWVATISSGGSKTYYLDSVKGRFTISRDNSKDTLYLQMNSLRAEDTALYYCARLFTGHAMDYWGQGTLVTVSS VL: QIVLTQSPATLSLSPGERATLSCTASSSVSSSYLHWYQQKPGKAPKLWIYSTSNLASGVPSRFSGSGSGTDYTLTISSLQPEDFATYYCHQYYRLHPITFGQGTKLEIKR ; measured koff: 0.00126
